Efficacy listing for selected compounds.
target: Bile acid receptor (Homo sapiens); experiment: Agonist activity at human GST-tagged FXR ligand binding domain assessed as recruitment of Src-1 peptide […] by AlphaScreen assay relative to 10 uM of CDCA

[
  {
    "COMPOUND": "COc1ccccc1Oc1ccc([C@H]2S[C@@H](C)C(=O)Nc3c2c(C)nn3-c2ccccc2C)cc1 (racemic)",
    "TESTED ON": "Bile acid receptor (Homo sapiens)",
    "Efficacy [%]": 240
  },
  {
    "COMPOUND": "COc1cccc(-c2ccc([C@H]3S[C@@H](C)C(=O)Nc4c3c(C)nn4-c3ccccc3C)cc2)c1 (racemic)",
    "TESTED ON": "Bile acid receptor (Homo sapiens)",
    "Efficacy [%]": 41
  },
  {
    "COMPOUND": "Cc1ccccc1-n1nc(C)c2c1NC(=O)[C@H](C)S[C@@H]2c1ccc(-c2ccoc2)cc1 (racemic)",
    "TESTED ON": "Bile acid receptor (Homo sapiens)",
    "Efficacy [%]": 40
  },
  {
    "COMPOUND": "Cc1nn(-c2ccccc2Br)c2c1C(c1ccc(Oc3ccccc3)cc1)SC(C)C(=O)N2 (mixture of isomers)",
    "TESTED ON": "Bile acid receptor (Homo sapiens)",
    "Efficacy [%]": 84
  },
  {
    "COMPOUND": "Cc1nn(-c2ccccc2C(C)C)c2c1[C@@H](c1ccc(Oc3ccccc3)cc1)S[C@@H](C)C(=O)N2 (racemic)",
    "TESTED ON": "Bile acid receptor (Homo sapiens)",
    "Efficacy [%]": 174
  },
  {
    "COMPOUND": "Cc1ccccc1-n1nc(C)c2c1NC(=O)[C@H](C)S[C@@H]2c1ccc(-c2ccsc2)cc1 (racemic)",
    "TESTED ON": "Bile acid receptor (Homo sapiens)",
    "Efficacy [%]": 68
  },
  {
    "COMPOUND": "Cc1nn(-c2ccccc2I)c2c1C(c1ccc(Oc3ccccc3)cc1)SC(C)C(=O)N2 (racemic)",
    "TESTED ON": "Bile acid receptor (Homo sapiens)",
    "Efficacy [%]": 130
  },
  {
    "COMPOUND": "COc1ccc(C2SC(C)C(=O)Nc3c2c(C)nn3-c2ccccc2C)c(OC)c1 (configuration not stated)",
    "TESTED ON": "Bile acid receptor (Homo sapiens)",
    "Efficacy [%]": 63
  },
  {
    "COMPOUND": "Cc1nn(-c2ccccc2C(F)(F)F)c2c1C(c1ccc(Oc3ccccc3)cc1)SC(C)C(=O)N2 (racemic)",
    "TESTED ON": "Bile acid receptor (Homo sapiens)",
    "Efficacy [%]": 50
  },
  {
    "COMPOUND": "COc1ccccc1-c1ccc([C@H]2S[C@@H](C)C(=O)Nc3c2c(C)nn3-c2ccccc2C)cc1 (racemic)",
    "TESTED ON": "Bile acid receptor (Homo sapiens)",
    "Efficacy [%]": 50
  },
  {
    "COMPOUND": "Cc1ccccc1-n1nc(C)c2c1NC(=O)[C@H](C)S[C@@H]2c1ccc(-c2ccco2)cc1 (racemic)",
    "TESTED ON": "Bile acid receptor (Homo sapiens)",
    "Efficacy [%]": 32
  },
  {
    "COMPOUND": "Cc1nn(-c2ccccc2F)c2c1C(c1ccc(Oc3ccccc3)cc1)SC(C)C(=O)N2 (mixture of isomers)",
    "TESTED ON": "Bile acid receptor (Homo sapiens)",
    "Efficacy [%]": 72
  },
  {
    "COMPOUND": "Cc1cccc(-n2nc(C)c3c2NC(=O)[C@H](C)S[C@@H]3c2ccc(Oc3ccccc3)cc2)c1 (racemic)",
    "TESTED ON": "Bile acid receptor (Homo sapiens)",
    "Efficacy [%]": 22
  },
  {
    "COMPOUND": "Cc1ccccc1-n1nc(C)c2c1NC(=O)[C@H](C)S[C@@H]2c1ccc(-c2ccccc2)cc1 (racemic)",
    "TESTED ON": "Bile acid receptor (Homo sapiens)",
    "Efficacy [%]": 24
  },
  {
    "COMPOUND": "Cc1ccccc1-n1nc(C)c2c1NC(=O)[C@H](C)S[C@@H]2c1ccc(-c2cccs2)cc1 (racemic)",
    "TESTED ON": "Bile acid receptor (Homo sapiens)",
    "Efficacy [%]": 85
  },
  {
    "COMPOUND": "COc1cccc(Oc2ccc([C@H]3S[C@@H](C)C(=O)Nc4c3c(C)nn4-c3ccccc3C)cc2)c1 (racemic)",
    "TESTED ON": "Bile acid receptor (Homo sapiens)",
    "Efficacy [%]": 120
  },
  {
    "COMPOUND": "COc1cc([C@H]2S[C@@H](C)C(=O)Nc3c2c(C)nn3-c2ccccc2C)ccc1Oc1ccccc1 (racemic)",
    "TESTED ON": "Bile acid receptor (Homo sapiens)",
    "Efficacy [%]": 130
  },
  {
    "COMPOUND": "Cc1ccc(-n2nc(C)c3c2NC(=O)[C@H](C)S[C@@H]3c2ccc(Oc3ccccc3)cc2)cc1 (racemic)",
    "TESTED ON": "Bile acid receptor (Homo sapiens)",
    "Efficacy [%]": 11
  },
  {
    "COMPOUND": "Cc1nn(-c2ccccc2Cl)c2c1C(c1ccc(Oc3ccccc3)cc1)SC(C)C(=O)N2 (mixture of isomers)",
    "TESTED ON": "Bile acid receptor (Homo sapiens)",
    "Efficacy [%]": 57
  },
  {
    "COMPOUND": "COc1ccc(Oc2ccc([C@H]3S[C@@H](C)C(=O)Nc4c3c(C)nn4-c3ccccc3C)cc2)cc1 (racemic)",
    "TESTED ON": "Bile acid receptor (Homo sapiens)",
    "Efficacy [%]": 70
  },
  {
    "COMPOUND": "CCCc1ccccc1-n1nc(C)c2c1NC(=O)[C@H](C)S[C@@H]2c1ccc(Oc2ccccc2)cc1 (racemic)",
    "TESTED ON": "Bile acid receptor (Homo sapiens)",
    "Efficacy [%]": 240
  },
  {
    "COMPOUND": "CCOc1cccc(-c2ccc([C@H]3S[C@@H](C)C(=O)Nc4c3c(C)nn4-c3ccccc3C)cc2)c1 (racemic)",
    "TESTED ON": "Bile acid receptor (Homo sapiens)",
    "Efficacy [%]": 13
  },
  {
    "COMPOUND": "CCc1ccccc1-n1nc(C)c2c1NC(=O)[C@H](C)S[C@@H]2c1ccc(Oc2ccccc2)cc1 (racemic)",
    "TESTED ON": "Bile acid receptor (Homo sapiens)",
    "Efficacy [%]": 190
  },
  {
    "COMPOUND": "Cc1ccccc1-n1nc(C)c2c1NC(=O)[C@H](C)S[C@@H]2c1ccc(Oc2ccccc2)cc1 (racemic)",
    "TESTED ON": "Bile acid receptor (Homo sapiens)",
    "Efficacy [%]": 118
  },
  {
    "COMPOUND": "COc1ccccc1-n1nc(C)c2c1NC(=O)[C@H](C)S[C@@H]2c1ccc(Oc2ccccc2)cc1 (racemic)",
    "TESTED ON": "Bile acid receptor (Homo sapiens)",
    "Efficacy [%]": 37
  },
  {
    "COMPOUND": "Cc1ccccc1-n1nc(C)c2c1NC(=O)[C@H](C)S[C@@H]2c1ccc(-c2cc3ccccc3o2)cc1 (racemic)",
    "TESTED ON": "Bile acid receptor (Homo sapiens)",
    "Efficacy [%]": 17
  },
  {
    "COMPOUND": "COc1ccc(-c2ccc([C@H]3S[C@@H](C)C(=O)Nc4c3c(C)nn4-c3ccccc3C)cc2)cc1 (racemic)",
    "TESTED ON": "Bile acid receptor (Homo sapiens)",
    "Efficacy [%]": 38
  }
]
